meta.source: ChEMBL document CHEMBL1137913

Each item that follows carries a reported pIC50.
Assay: Inhibition of human Biotinylated Fg binding to immobilized Alpha II biotinylated Fg beta-5
Keep it numeric: pIC50 is minus log10 of the concentration in mol/L.

| compound | pIC50 |
| --- | --- |
| O=C(O)CC(CC1CCN(C(=O)CCCc2ccc3c(n2)NCCC3)CC1)c1ccc2c(c1)OCO2 (stereo not given) | 6.66 |
| O=C(O)CC(CC1CCN(C(=O)CCc2ccc3c(n2)NCCC3)CC1)c1ccc2c(c1)OCO2 (stereo not given) | 8.64 |
| O=C(O)CC(CC1CCN(C(=O)CCc2ccc3c(n2)NCCC3)CC1)c1ccc2ccccc2c1 (stereo not given) | 7.61 |
| O=C(O)CC(c1ccc2c(c1)OCO2)C1CCN(C(=O)CCCc2ccc3c(n2)NCCC3)CC1 (stereo not given) | 7.47 |
| O=C(O)CC(c1ccc2c(c1)OCO2)C1CCN(C(=O)Cc2ccc3c(n2)NCCC3)CC1 (stereo not given) | 6.11 |

Query :: So what's the measured pIC50 for this one? O=C(O)CC(c1ccc2c(c1)OCO2)C1CCN(C(=O)CCc2ccc3c(n2)NCCC3)CC1 (stereo not given)
Result :: 7.02

====

Test: AUC was determined after peroral administration at 10 mg/kg
Format: ADME, organism-based
Design: dose 10 mg/kg, route oral
Details: rat, plasma, po
Each item that follows carries a reported AUC.
Unit µM·h implied. Number only.

Use the examples below as a reference point.
| compound | unit descriptor | AUC |
| --- | --- | --- |
| O=C(O)CC(NC(=O)C1CCN(C(=O)CCc2ccc3c(n2)NCCC3)CC1)c1ccc2c(c1)OCO2 (centres undefined) | µM·h | 79 |
| O=C(O)CC(CCC1CCN(C(=O)c2cccc(NC3=NCC(O)CN3)c2)CC1)c1ccc2c(c1)OCO2 (centres undefined) | µM·h | 21.2 |
| O=C(O)CC(CC1CCN(C(=O)CCc2ccc3c(n2)NCCC3)CC1)c1ccc2ccccc2c1 (centres undefined) | µM·h | 286 |

Query :: So what's the measured AUC for this one? O=C(O)CC(CCC1CCN(C(=O)CCCNc2ccccn2)CC1)c1ccc2c(c1)OCO2 (centres undefined)
Result :: 142

Query :: So what's the measured AUC for this one? O=C(O)CC(CC1CCN(C(=O)CCc2ccc3c(n2)NCCC3)CC1)c1cccc(F)c1 (centres undefined)
Result :: 2.7

Query :: So what's the measured AUC for this one? COc1ncc(C(CC(=O)O)CC2CCN(C(=O)CCc3ccc4c(n3)NCCC4)CC2)c(OC)n1 (centres undefined)
Result :: 0.1

Query :: So what's the measured AUC for this one? O=C(O)CC(CC1CCN(C(=O)CCc2ccc3c(n2)NCCC3)CC1)c1ccc2c(c1)OCO2 (centres undefined)
Result :: 97

Query :: So what's the measured AUC for this one? O=C(O)CC(CCC1CCN(C(=O)CCc2ccc3c(n2)NCCC3)CC1)c1ccc2c(c1)OCO2 (centres undefined)
Result :: 304

====

Target: Integrin alpha-IIb/beta-3 (Homo sapiens, UniProt P05106+P08514)
Sequence (P05106 27-788 limits assumed): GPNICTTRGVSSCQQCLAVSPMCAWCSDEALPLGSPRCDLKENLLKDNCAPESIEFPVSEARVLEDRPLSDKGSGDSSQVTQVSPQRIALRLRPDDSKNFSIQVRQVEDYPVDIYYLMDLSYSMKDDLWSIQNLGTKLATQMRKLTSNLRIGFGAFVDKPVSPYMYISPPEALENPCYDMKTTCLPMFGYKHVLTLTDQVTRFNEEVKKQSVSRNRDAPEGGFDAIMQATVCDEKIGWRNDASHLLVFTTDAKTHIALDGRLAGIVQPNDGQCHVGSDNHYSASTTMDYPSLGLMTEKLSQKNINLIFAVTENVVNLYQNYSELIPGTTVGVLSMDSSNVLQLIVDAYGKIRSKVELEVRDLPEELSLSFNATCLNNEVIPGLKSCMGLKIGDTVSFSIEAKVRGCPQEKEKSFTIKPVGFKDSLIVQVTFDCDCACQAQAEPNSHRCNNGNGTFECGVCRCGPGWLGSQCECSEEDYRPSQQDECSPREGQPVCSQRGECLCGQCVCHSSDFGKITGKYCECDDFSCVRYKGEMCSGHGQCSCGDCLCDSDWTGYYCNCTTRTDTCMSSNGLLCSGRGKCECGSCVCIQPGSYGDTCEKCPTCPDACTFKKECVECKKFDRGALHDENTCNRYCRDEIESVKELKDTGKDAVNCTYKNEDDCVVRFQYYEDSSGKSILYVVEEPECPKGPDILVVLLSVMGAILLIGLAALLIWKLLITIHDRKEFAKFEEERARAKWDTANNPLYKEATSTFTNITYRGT
Sequence (P08514 32-887 limits assumed): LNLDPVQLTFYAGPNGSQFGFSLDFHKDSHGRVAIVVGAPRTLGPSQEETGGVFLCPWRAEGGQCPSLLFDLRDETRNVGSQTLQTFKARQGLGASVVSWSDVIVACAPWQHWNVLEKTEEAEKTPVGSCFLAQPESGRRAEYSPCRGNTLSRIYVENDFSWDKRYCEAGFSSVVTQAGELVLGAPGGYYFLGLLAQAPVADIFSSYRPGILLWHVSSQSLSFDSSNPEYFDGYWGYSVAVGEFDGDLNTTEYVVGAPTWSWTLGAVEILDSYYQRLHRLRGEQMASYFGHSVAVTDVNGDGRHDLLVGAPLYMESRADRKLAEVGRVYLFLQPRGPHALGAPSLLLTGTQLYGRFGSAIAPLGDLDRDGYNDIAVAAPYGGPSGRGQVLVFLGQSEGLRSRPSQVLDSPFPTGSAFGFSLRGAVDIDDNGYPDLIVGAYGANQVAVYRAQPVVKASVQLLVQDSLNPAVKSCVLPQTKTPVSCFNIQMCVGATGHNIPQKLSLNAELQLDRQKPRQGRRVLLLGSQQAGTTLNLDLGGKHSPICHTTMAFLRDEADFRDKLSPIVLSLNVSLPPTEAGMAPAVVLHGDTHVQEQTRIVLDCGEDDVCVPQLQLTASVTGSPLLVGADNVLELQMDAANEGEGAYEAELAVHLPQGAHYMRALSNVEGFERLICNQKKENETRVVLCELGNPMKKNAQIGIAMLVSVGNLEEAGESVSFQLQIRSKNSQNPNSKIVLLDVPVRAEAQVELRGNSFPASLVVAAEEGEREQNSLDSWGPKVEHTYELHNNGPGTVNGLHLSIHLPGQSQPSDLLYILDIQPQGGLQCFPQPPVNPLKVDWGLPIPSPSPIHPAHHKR
Sequence (P08514 891-1039 limits assumed): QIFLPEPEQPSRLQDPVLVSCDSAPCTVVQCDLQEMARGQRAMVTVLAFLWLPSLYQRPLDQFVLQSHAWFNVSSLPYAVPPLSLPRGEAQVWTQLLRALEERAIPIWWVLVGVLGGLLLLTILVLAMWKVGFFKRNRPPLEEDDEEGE
Test: Inhibition of human Biotinylated Fg binding to immobilized Alpha IIb beta-3 (N=1)
Assay type: protein-complex assay
assay endpoint: IC50

Query :: So what's the measured IC50 for this one? O=C(O)CC(c1ccc2c(c1)OCO2)C1CCN(C(=O)Cc2ccc3c(n2)NCCC3)CC1 (stereo unspecified)
Result :: > 10 µM
